Entries and their Δ AP DIAST values follow.
- Test system: male Wistar rats
- protocol_conditions: 800 μg/kg i.v.
Return type: number; implicit unit mmHg.

Exercise: Given the compound CC(C)=CCN=C(N)N [galegine, prenylguanidine, reference compound] , what is its reported Δ AP DIAST?
Solution: -26

Exercise: // Δ AP DIAST lookup, key: `COc1ccc(C=CC(=O)NCCCCNC(=N)NCC=C(C)C)cc1OC`
Solution: -15

Exercise: I have this compound here, NCCCCN=C(N)N [agmatine, 4-(aminobutyl)guanidine, reference compound] , and I need its recorded Δ AP DIAST.
Solution: -8

Exercise: Requested read-out: Δ AP DIAST. Entry: `COc1ccc(C=CC(=O)NCCCCNC(=N)N)cc1OC`
Solution: -6

Exercise: So what does the record say about Δ AP DIAST for `COc1ccc([C@@H]2[C@@H](C(=O)NCCCCNC(=N)NCC=C(C)C)[C@@H](C(=O)NCCCCNC(=N)NCC=C(C)C)[C@@H]2c2ccc(OC)c(OC)c2)cc1OC` ?
Solution: -31.2

Exercise: Requested field: Δ AP DIAST. Item: `CC(C)=CCNC(=N)NCCCCN`
Solution: -13

====

- System: male Wistar rats
- protocol_conditions: 400 μg/kg i.v.
Quick reference: Δ TV of the listed items.

| compound | measured_metric | endpoint_result |
| --- | --- | --- |
| NCCCCN=C(N)N [agmatine, 4-(aminobutyl)guanidine, reference compound] | Δ TV | +12 ± 4% |
| CC(C)=CCNC(=N)NCCCCN [guanido-III, prenylagmatine] | Δ TV | +17 ± 6% |

Exercise: # input compound: CC(C)=CCN=C(N)N [galegine, prenylguanidine, reference compound] ; wanted: its Δ TV
Solution: +87 ± 9%
